In this section we review reported Fibrin % inhibition values for a set of compounds.
Tested on: fibrin-induced microglia activation
Assay protocol: Image-based assay of fibrin-induced microglia activation (HTS and dose response)
Type: cell-based, rat
Write the answer as a number in %, unit excluded.

- Compound: "CN1CCc2cccc3c2[C@H]1Cc1ccc(O)c(O)c1-3.Cl [R(−)-Apomorphine hydrochloride, reference compound]"
  Units of measure: "%"
  Fibrin % inhibition: 63
- Compound: "COCc1c(C(C)C)nc(C(C)C)c(/C=C/[C@@H](O)C[C@@H](O)CC(=O)O)c1-c1ccc(F)cc1"
  Units of measure: "%"
  Fibrin % inhibition: 103
- Compound: "CNCCC(Oc1ccc(C(F)(F)F)cc1)c1ccccc1.Cl (stereo not drawn) [Fluoxetine Hydrochloride, Fluoxetine]"
  Units of measure: "%"
  Fibrin % inhibition: 46
- Compound: "CC(C)(O)c1ccccc1CC[C@@H](SCC1(CC(=O)O)CC1)c1cccc(/C=C/c2ccc3ccc(Cl)cc3n2)c1"
  Units of measure: "%"
  Fibrin % inhibition: "−5"
- Compound: "Oc1ccc2c3c1O[C@H]1[C@@H](O)CC[C@@]4(O)[C@@H](C2)N(CC2CCC2)CC[C@]314"
  Units of measure: "%"
  Fibrin % inhibition: "−8"

// moving on: another record for Fibrin % inhibition
Noted for `CO[C@H]1/C=C/O[C@@]2(C)Oc3c(C)c(O)c4c(O)c(c(/C=N/N5CCN(C)CC5)c(O)c4c3C2=O)NC(=O)/C(C)=C\C=C\[C@H](C)[C@H](O)[C@@H](C)[C@@H](O)[C@@H](C)[C@H](OC(C)=O)[C@@H]1C` : its Fibrin % inhibition reads −21

====

Test system: LPS-induced microglia activation
Assay protocol: Image-based assay of LPS-induced microglia activation (HTS and dose response)
Assay type: cell-based, rat
Measurement setup: Rattus norvegicus, Microglia, 48 h, Table 1; dose response 0.001-20 μM, triplicates, primary rat microglia, 48 h; read-out: LPS IC50
Where a name gives a salt, the structure may show the parent alone.
In this section we review reported pIC50 values for a set of compounds.
Just the number, please; pIC50 means minus log10 of the concentration in mol/L.

- Compound: "CCN(CC)C(=O)C1(c2ccccc2)CC1CN (centres unmarked) [Milnacipran hydrochloride, reference compound]"
  Observed: 4.70
- Compound: "CC(C)c1nc(N(C)S(C)(=O)=O)nc(-c2ccc(F)cc2)c1/C=C/[C@@H](O)C[C@@H](O)CC(=O)O [Rosuvastatin, reference compound]"
  Observed: 5.52
- Compound: "CN(C)CCCOc1nn(Cc2ccccc2)c2ccccc12 [Benzydamine hydrochloride, reference compound]"
  Observed: 5.52

// moving on: another record for pIC50
Noted for CN(C)[C@@H]1C(O)=C(C(N)=O)C(=O)[C@@]2(O)C(O)=C3C(=O)c4c(O)ccc(Cl)c4[C@@H](O)[C@H]3C[C@@H]12 [Demeclocycline hydrochloride, reference compound] : its pIC50 reads 4.82

====

System: primary rat microglia
Assay protocol: Cell toxicity (dead cells, size <150 μm2) in coated fibrin (cFib) assay;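 further: share of dead cells sized under 150 µm2 at 10 µM in fibrin-stimulated microglia HTS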
Measurement setup: primary microglia HTS, fibrin stimulation, cell size <150 μm2 as marker of toxicity
Metric name: Fibrin % cell toxicity
Remember to put the unit after the number in your answer.

As a guide, the following entries are already answered.
- Molecule: "O=P(O)(O)C(O)(Cc1cccnc1)P(=O)(O)O [Risedronate]"
  Tgt: "primary rat microglia"
  Fibrin % cell toxicity: "1%"
- Molecule: "O=C(O)CCCO [Sodium Oxybate]"
  Tgt: "primary rat microglia"
  Fibrin % cell toxicity: "1%"
- Molecule: "CN(C)C(=O)Oc1ccc[n+](C)c1"
  Tgt: "primary rat microglia"
  Fibrin % cell toxicity: "1%"

// moving on: another record for Fibrin % cell toxicity
Noted for `OCCN1CCN(CCCN2c3ccccc3Sc3ccc(Cl)cc32)CC1` : its Fibrin % cell toxicity reads 1%

====

In this section we review reported LPS % cell toxicity values for a set of molecules.
Test system: primary rat microglia
Measurement setup: rat
Structures can show the parent of a compound that is named as a salt.

As a guide, the following entries are already answered.
- Molecule: "CCC1NC(=O)c2cc(S(N)(=O)=O)c(Cl)cc2N1 (centres unmarked)"
  Tgt: "primary rat microglia"
  LPS % cell toxicity: "1%"
- Molecule: "NC(=O)c1ccccc1O [Salicylamide]"
  Tgt: "primary rat microglia"
  LPS % cell toxicity: "1%"
- Molecule: "CSc1ccc2c(c1)N(CCC1CCCCN1C)c1ccccc1S2 (centres unmarked) [Thioridazine hydrochloride, reference compound]"
  Tgt: "primary rat microglia"
  LPS % cell toxicity: "73%"

Noted for `C[C@H](CCC(=O)O)[C@H]1CC[C@H]2[C@@H]3[C@H](O)C[C@@H]4C[C@H](O)CC[C@]4(C)[C@H]3C[C@H](O)[C@]12C` : its LPS % cell toxicity reads 0%

====

This document collects LPS % cell toxicity values reported for primary rat microglia.
Write the answer as a number in %, unit excluded.

As a guide, the following entries are already answered.
- Compound: "NC[C@H]1O[C@H](O[C@H]2[C@H](O[C@@H]3O[C@H](CO)[C@@H](O)[C@H]3O)[C@@H](O)[C@H](N)C[C@@H]2N)[C@H](N)[C@@H](O)[C@@H]1O.O=S(=O)(O)O [Ribostamycin Sulfate]"
  Units of measure: "%"
  LPS % cell toxicity: 0
- Compound: "CC(=O)O[C@H]1C(=O)[C@@]2(C)[C@H]([C@H](OC(=O)c3ccccc3)[C@]3(O)C[C@H](OC(=O)[C@H](O)[C@@H](NC(=O)c4ccccc4)c4ccccc4)C(C)=C1C3(C)C)[C@]1(OC(C)=O)CO[C@@H]1C[C@@H]2O"
  Units of measure: "%"
  LPS % cell toxicity: 1
- Compound: "CN(C)CC[C@@H](c1ccc(Br)cc1)c1ccccn1"
  Units of measure: "%"
  LPS % cell toxicity: 0
- Compound: "CCC(=O)OCC(=O)[C@@]1(OC(=O)CC)[C@@H](C)C[C@H]2[C@@H]3CCC4=CC(=O)C=C[C@]4(C)[C@@]3(F)[C@@H](O)C[C@@]21C [Betamethasone 17,21-dipropionate]"
  Units of measure: "%"
  LPS % cell toxicity: 0
- Compound: "CC(=O)Oc1cccc2c1C(=O)c1c(OC(C)=O)cc(C(=O)O)cc1C2=O"
  Units of measure: "%"
  LPS % cell toxicity: 0

// moving on: another record for LPS % cell toxicity
I looked up CCCc1cc(C(N)=S)ccn1 [Protionamide, Ektebin] and its LPS % cell toxicity for primary rat microglia was 0

====

Assay protocol: in vitro
Measurement setup: rat
Metric name: IC50

As a guide, the following entries are already answered.
- Compound: "CCCC(=O)O[C@]1(C(=O)CO)CC[C@H]2[C@@H]3CCC4=CC(=O)CC[C@]4(C)[C@H]3[C@@H](O)C[C@@]21C [Hydrocortisone butyrate, reference compound]"
  Observed: "> 20 µM"
- Compound: "CCCCC(=O)O[C@]1(C(=O)CO)CC[C@H]2[C@@H]3CCC4=CC(=O)CC[C@]4(C)[C@H]3[C@@H](O)C[C@@]21C [Hydrocortisone valerate, reference compound]"
  Observed: "> 20 µM"

Noted for NS(=O)(=O)c1cc(C2(O)NC(=O)c3ccccc32)ccc1Cl (stereo not drawn) [Chlorthalidone, reference compound] : its IC50 reads > 20 µM

====

In this section we review reported Fibrin % cell toxicity values for a set of compounds.
Test system: primary rat microglia
Measurement setup: rat

- Compound: "CS(=O)(=O)OCCCCOS(C)(=O)=O"
  Metric name: "Fibrin % cell toxicity"
  Observed: "0%"
- Compound: "COc1ccc([C@@H]2Sc3ccccc3N(CCN(C)C)C(=O)[C@@H]2OC(C)=O)cc1 [Diltiazem]"
  Metric name: "Fibrin % cell toxicity"
  Observed: "1%"
- Compound: "CN(C)CCC(c1ccccc1)c1ccccn1 (stereo not shown)"
  Metric name: "Fibrin % cell toxicity"
  Observed: "1%"
- Compound: "C(=C\\c1ccccc1)/CN1CCN(C(c2ccccc2)c2ccccc2)CC1"
  Metric name: "Fibrin % cell toxicity"
  Observed: "1%"
- Compound: "Cc1ncc([N+](=O)[O-])n1CCO"
  Metric name: "Fibrin % cell toxicity"
  Observed: "0%"

Noted for `Cl[C@H]1[C@H](Cl)[C@@H](Cl)[C@@H](Cl)[C@H](Cl)[C@H]1Cl` : its Fibrin % cell toxicity reads 0%

Noted for `CC(C)(C#N)c1cc(Cn2cncn2)cc(C(C)(C)C#N)c1` : its Fibrin % cell toxicity reads 1%

====

Test system: fibrin-induced microglia activation
Assay protocol: Image-based assay of fibrin-induced microglia activation (HTS and dose response)
Format: cell-based, rat
Measurement setup: Rattus norvegicus, Microglia, Table 3; read-out: Fibrin IC50 (uM) (Suppl. Table 7)
Structures can show the parent of a compound that is named as a salt.
In this section we review reported IC50 values for a set of molecules.
Write the answer as a number in µM, unit excluded.

As a guide, the following entries are already answered.
- Molecule: "O=C(NC(Cc1cc(=O)[nH]c2ccccc12)C(=O)O)c1ccc(Cl)cc1 (stereo not drawn) [Rebamipide, reference compound]"
  Tgt: "fibrin-induced microglia activation"
  IC50 (µM): 2
- Molecule: "CC(NCCc1ccc(O)cc1)C(O)c1ccc(O)cc1 (stereo not drawn) [Ritodrine hydrochloride, reference compound]"
  Tgt: "fibrin-induced microglia activation"
  IC50 (µM): 0.6
- Molecule: "CCN(CC)C(=O)C1(c2ccccc2)CC1CN (stereo not drawn) [Milnacipran hydrochloride, reference compound]"
  Tgt: "fibrin-induced microglia activation"
  IC50 (µM): 8
- Molecule: "CC[C@]1(O)C[C@@H]2CN(CCc3c([nH]c4ccccc34)[C@@](C(=O)OC)(c3cc4c(cc3OC)N(C)[C@H]3[C@@](O)(C(=O)OC)[C@H](OC(C)=O)[C@]5(CC)C=CCN6CC[C@]43[C@@H]65)C2)C1 [Vinblastine sulfate, reference compound]"
  Tgt: "fibrin-induced microglia activation"
  IC50 (µM): 0.02
- Molecule: "O=P(O)(O)C(O)(Cn1ccnc1)P(=O)(O)O [Zoledronic acid, reference compound]"
  Tgt: "fibrin-induced microglia activation"
  IC50 (µM): 2

I looked up c1ccc2c(c1)OCC(C1=NCCN1)O2 (stereo not drawn) [Idazoxan hydrochloride, reference compound] and its IC50 for fibrin-induced microglia activation was 0.4

I looked up CCCC(=O)O[C@]1(C(=O)CO)CC[C@H]2[C@@H]3CCC4=CC(=O)CC[C@]4(C)[C@H]3[C@@H](O)C[C@@]21C [Hydrocortisone butyrate, reference compound] and its IC50 for fibrin-induced microglia activation was 0.02

Origin of the recorded values: patent US20210330611A1
